- System: BXPC-3;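 also: growth inhibition of human BxPC-3 cells, read out by a cell viability assay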
- EXPERIMENT_NOTES: cells
- Type: functional, cell-based, Homo sapiens
- ASSAY_CONTEXT: Homo sapiens, BXPC-3
- Description: SANGER: Inhibition of human BxPC-3 cell growth in a cell viability assay.
pIC50: −log10 of the molar value.
ATTRIBUTE_MEASURED: pIC50

Solved cases (3 shown):
{"CHEMICAL_STRING": "C[C@]1(O)C[C@@H](c2nc(-c3ccc4ccc(-c5ccccc5)nc4c3)c3c(N)nccn32)C1", "pIC50": "< 5.59"}
{"CHEMICAL_STRING": "O=C(c1cc(Cc2n[nH]c(=O)c3ccccc23)ccc1F)N1CCN(C(=O)C2CC2)CC1", "pIC50": "< 5.30"}
{"CHEMICAL_STRING": "O=C(NOCC1CC1)c1ccc(F)c(F)c1Nc1ccc(I)cc1Cl", "pIC50": "< 5.00"}

Give recorded pIC50 with BXPC-3 for the following compound: CC(=O)O[C@@H]1[C@@H](OC(C)=O)[C@@H](O)[C@H](Oc2c(-c3ccc(O)cc3)oc3cc(O)cc(O)c3c2=O)O[C@H]1C
< 5.00

For the record COc1ccc(C2=N[C@@H](c3ccc(Cl)cc3)[C@@H](c3ccc(Cl)cc3)N2C(=O)N2CCNC(=O)C2)c(OC(C)C)c1 , what value of pIC50 is listed for BXPC-3?
< 5.10

Lab note: need pIC50 with BXPC-3 for entry CCOc1nc(NC(=O)Cc2cc(OC)ccc2OC)cc(N)c1C#N , please look it up.
< 5.00

* * *

Measured IC50, listed per entry for reference.
- Test system: PA-1;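 also: IC50 for suppression of PA-1 cell proliferation, determined with a cell viability read-out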
- EXPERIMENT_NOTES: cells
- Format: functional, cell-based, Homo sapiens
- ASSAY_CONTEXT: Homo sapiens, PA-1
- Description: SANGER: Inhibition of human PA-1 cell growth in a cell viability assay.

Previously resolved entries follow.
{"COMPOUND": "COc1cc(F)c(F)c(Nc2ccc(I)cc2F)c1NS(=O)(=O)C1(CC(O)CO)CC1 (stereo not drawn)", "TESTED_SYSTEM": "PA-1", "OBSERVED_RESULT": "> 5 µM"}
{"COMPOUND": "CN(c1ncccc1CNc1nc(Nc2ccc3c(c2)CC(=O)N3)ncc1C(F)(F)F)S(C)(=O)=O", "TESTED_SYSTEM": "PA-1", "OBSERVED_RESULT": "> 2.56 µM"}

# input compound: C[C@]1(O)C[C@@H](c2nc(-c3ccc4ccc(-c5ccccc5)nc4c3)c3c(N)nccn32)C1 ; wanted: its IC50
> 2.56 µM

* * *

- Test system: EW-16;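 also: growth inhibition of human EW-16 cells, read out as cell viability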
- EXPERIMENT_NOTES: cells
- Assay type: functional, cell-based, Homo sapiens
- ASSAY_CONTEXT: Homo sapiens, EW-16
- Description: SANGER: Inhibition of human EW-16 cell growth in a cell viability assay.
ATTRIBUTE_MEASURED: IC50

Example entries begin here.
{"MOLECULE": "O=C1N=C(NCc2cccs2)S/C1=C\\c1ccc2ncccc2c1", "IC50": "> 5 µM"}
{"MOLECULE": "CC1=C2C[C@H]3[C@@H](CC=C4C[C@@H](O)CC[C@@]43C)[C@@H]2CC[C@]12O[C@@H]1C[C@H](C)CN[C@H]1[C@H]2C", "IC50": "> 16 µM"}
{"MOLECULE": "O=C(/C=C/c1ccccc1)NC(NC(=S)Nc1cccc2cccnc12)C(Cl)(Cl)Cl (centres undefined)", "IC50": "> 16 µM"}

Please find the next molecule below.
Query: IC50; subject: CN(Cc1cnc2nc(N)nc(N)c2n1)c1ccc(C(=O)N[C@@H](CCC(=O)O)C(=O)O)cc1 [METHOTREXATE]
> 0.2 µM
